Entries annotated with measured IC50
target: human GPR84 receptor (Homo sapiens); assay: Gαi biosensor BRET assay in HEK293 cells transfected with GPR84, stimulated with the GPR84 agonist ZQ-16; conditions: 200 nmol/L ZQ-16

Worked cases, answers included:
- substanceSmiles: "c1nc(-c2cn(CC3OCC4(CC4)CO3)nn2)c(OC2CC2)cc1-c1nnn[nH]1"
  IC50: "≤ 300 nM"
- substanceSmiles: "CC1(C)COC(Cn2cc(-c3ccc(C#CCOC4CC4)cc3C3CC3)nn2)OC1"
  IC50: "300 to 1000 nM"
- substanceSmiles: "CCc1cc(N2CCN(Cc3ccccn3)CC2)ccc1-c1cn(CC2OCC3(CC3)CO2)cn1"
  IC50: "≤ 300 nM"

Identify IC50 associated with the molecule "c1nc(-c2cn(CC3OCC4(CC4)CO3)nn2)c(OC2CC2)cc1-c1cnn[nH]1"
≤ 300 nM

----------
Biological target: human GPR84 receptor (Homo sapiens, UniProt Q9NQS5)
Sequence (Q9NQS5 whole entry): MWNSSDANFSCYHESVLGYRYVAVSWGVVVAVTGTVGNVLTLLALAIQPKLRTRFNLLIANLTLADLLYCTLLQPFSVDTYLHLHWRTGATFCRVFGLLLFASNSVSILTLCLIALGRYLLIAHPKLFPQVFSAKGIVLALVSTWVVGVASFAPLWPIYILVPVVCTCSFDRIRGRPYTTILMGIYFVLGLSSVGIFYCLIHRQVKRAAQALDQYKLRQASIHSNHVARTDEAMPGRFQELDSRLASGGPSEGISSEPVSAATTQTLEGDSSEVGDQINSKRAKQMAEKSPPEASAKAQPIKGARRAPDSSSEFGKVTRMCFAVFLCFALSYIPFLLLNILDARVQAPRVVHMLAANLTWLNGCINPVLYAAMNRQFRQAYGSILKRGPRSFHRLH
Assay: Gαi biosensor BRET assay in HEK293 cells transfected with GPR84, stimulated with the GPR84 agonist ZQ-16
Details: 200 nmol/L ZQ-16
Method: Background—The following assays can be used for determination of GPR84 activation in living HEK293 cells. […] Bioluminescence Resonance Energy Transfer (BRET) Measurement-HEK293 cells were transfected with GPR84-Rluc8 and rGFP-FYVE for the EEs trafficking biosensor or with GPR84, Gαi2-Rluc8, GFP10-Gγ2, and Gβ1 for the Gαi biosensor. […] The BRET signal was calculated as the ratio of light emitted by acceptor (GFP10, rGFP) over the light emitted by donor (Rluc8). […]
pIC50: −log10 of the molar value.
observedProperty: pIC50

- compound: "Cn1cc(-c2cnc(-c3cn(CC4OCC5(CC5)CO4)nn3)c(OC3CC3)c2)cn1"
  pIC50: "≥ 6.52"
- compound: "CC1(C)COC(Cn2cc(-c3ncc(C#CCNS(C)(=O)=O)cc3OC3CC3)nn2)OC1"
  pIC50: "≥ 6.52"
- compound: "CC1(C)COC(Cn2cc(-c3ncc(C#N)cc3OC3CC3)nn2)OC1"
  pIC50: "6.00 to 6.52"
- compound: "c1n[nH]cc1-c1cnc(-c2cn(CC3OCC4(CC4)CO3)nn2)c(OC2CC2)c1"
  pIC50: "6.00 to 6.52"

Quote pIC50 reported for "C(#Cc1cnc(-c2cn(CC3OCC4(CC4)CO3)nn2)c(OC2CC2)c1)CN1CC2(CC2)C1" please.
≥ 6.52

Given the compound OC1CC2(C1)CN(CC#Cc1cnc(-c3cn(CC4OCC5(CC5)CO4)nn3)c(OC3CC3)c1)C2 (centres unmarked) , write its reported pIC50.
≥ 6.52

Give me measured pIC50, please, for this compound: Cc1cc(N2CCN(C(C)c3ccccn3)CC2)ccc1-c1cn(CC2OCC3(CC3)CO2)cn1 (centres unmarked)
≥ 6.52

For "O=C(Cn1cc(-c2ncc(C#CC3CC3)cc2OC2CC2)nn1)N1CCCC1" , write its pIC50.
6.00 to 6.52

----------
// reported inhibition at 10 µM for each item listed
molecular target: human GPR84 receptor (Homo sapiens, UniProt Q9NQS5); construct: host or cells: HEK293 cells, transient transfection; test: Gαi biosensor BRET assay in HEK293 cells transfected with GPR84, stimulated with the GPR84 agonist ZQ-16; type: cell-based; details: HEK293, single concentration, concentration class F = 10 μM, 200 nmol/L ZQ-16

Some compounds with known inhibition at 10 µM results, for comparison:
- compound: "CC1(CO)CN(c2cnc(-c3cn(CC4OCC(F)(F)CO4)nn3)c(OC3CC3)c2)C1"
  testValue: "50 to 75%"
- compound: "O=C(Cn1cc(-c2ncc(C#CC3CC3)cc2OC2CC2)cn1)N1CCCC1"
  testValue: "25 to 50%"
- compound: "CN(C(=O)c1cnc(-c2cn(CC3OCC4(CC4)CO3)nn2)c(OC2CC2)c1)C1CC1"
  testValue: "≤ 25%"
- compound: "[2H]C([2H])([2H])C1(C([2H])([2H])[2H])COC(Cn2cc(-c3ccc(N4CC(C)(CO)C4)cc3N(C)C)nn2)OC1"
  testValue: "≤ 25%"
- compound: "O=C(Cn1cc(-c2ncc(C#CC3CC3)cc2OC2CC2)nn1)N1CC[C@@H](O)C1"
  testValue: "> 75%"

Determine from records and report inhibition at 10 µM for "CN(C)C(=O)CN(C)c1cnc(-c2cn(CC3OCC4(CC4)CO3)nn2)c(OC2CC2)c1"
≤ 25%

----------
target: human GPR84 receptor (Homo sapiens, UniProt Q9NQS5); assay: Gαi biosensor BRET assay in HEK293 cells transfected with GPR84, stimulated with the GPR84 agonist ZQ-16; conditions: 200 nmol/L ZQ-16
pIC50: −log10 of the molar value.
observedProperty: pIC50

Solved cases (2 shown):
- compound: "CC1(C)COC(Cn2cc(-c3ncc(C#CCNC4CC(F)(F)C4)cc3OC3CC3)nn2)OC1 [Compound I-38]"
  measurementTarget: "human GPR84 receptor (Homo sapiens, UniProt Q9NQS5)"
  pIC50: "≥ 6.52"
- compound: "CN(C)c1cc(N2CC(C)(CO)C2)ccc1-c1cn(CC2OCC(C)(C)CO2)cn1 [Compound I-39]"
  measurementTarget: "human GPR84 receptor (Homo sapiens, UniProt Q9NQS5)"
  pIC50: "6.00 to 6.52"

// fetch pIC50 given entry C(#CC1CC1)c1cnc(-c2cn(C[C@H]3CCCCO3)cn2)c(OC2CC2)c1 [Compound I-54]
≥ 6.52

# return recorded pIC50 for input FC1(F)CC12CN(CC#Cc1cnc(-c3cn(CC4OCC5(CC5)CO4)nn3)c(OC3CC3)c1)C2 [Compound I-16]
≥ 6.52

----------
target: human GPR84 receptor (Homo sapiens); construct: host or cells: HEK293 cells, transient transfection; assay: Gαi biosensor BRET assay in HEK293 cells transfected with GPR84, stimulated with the GPR84 agonist ZQ-16; type: cell-based; conditions: HEK293, single concentration, concentration class F = 10 μM, 200 nmol/L ZQ-16
Consider the following compounds and their measured inhibition at 10 µM readings.

Please review the following examples before continuing.
- compound: "CCCOc1cc(C#CC2CC2)cnc1-c1cn(CC(=O)N(C)C)nn1 [Compound I-221]"
  observedProperty: "inhibition at 10 µM"
  testValue: "50 to 75%"
- compound: "C(#CC1CC1)c1ccc(-c2nnc(-c3cn(CC4OCC5(CC5)CO4)nn3)o2)cc1 [Compound I-254]"
  observedProperty: "inhibition at 10 µM"
  testValue: "25 to 50%"
- compound: "c1c[nH]c(-c2cnc(-c3cn(CC4OCC5(CC5)CO4)nn3)c(OC3CC3)c2)n1 [Compound I-229]"
  observedProperty: "inhibition at 10 µM"
  testValue: "≤ 25%"
- compound: "O=C(O)Cn1cc(-c2ncc(C#CC3CC3)cc2OC2CC2)nn1 [Compound I-63]"
  observedProperty: "inhibition at 10 µM"
  testValue: "≤ 25%"
- compound: "OC1CC2(C1)CN(c1cnc(-c3cn(CC4OCC5(CC5)CO4)nn3)c(OC3CC3)c1)C2 (centres unmarked) [Compound I-31]"
  observedProperty: "inhibition at 10 µM"
  testValue: "> 75%"

Provide only the value of recorded inhibition at 10 µM for C(#CC1CC1)Cn1cc(-c2ncc(-c3nnn[nH]3)cc2OC2CC2)nn1 [Compound I-234]
> 75%

----------
molecular target: human GPR84 receptor (Homo sapiens); assay: Gαi biosensor BRET assay in HEK293 cells transfected with GPR84, stimulated with the GPR84 agonist ZQ-16; conditions: 200 nmol/L ZQ-16
pIC50: −log10 of the molar value.
observedProperty: pIC50

Param request: pIC50 | system human GPR84 receptor (Homo sapiens) | item O=C(Cn1cc(-c2c(OC3CC3)cc(C#CC3CC3)c[n+]2[O-])nn1)N1CCCC1 [Compound I-253]
5.52 to 6.00

Answer briefly: pIC50 recorded on human GPR84 receptor (Homo sapiens) for CCc1cc(C#CC(N)=O)ccc1-c1cn(CC2OCC(C)(C)CO2)nn1 [Compound I-37]
≥ 6.52

Report the value of pIC50 obtained on human GPR84 receptor (Homo sapiens) for Cc1cc(C#CCN2CC(C)(C)C2)cnc1-c1nnn(CC2OCC(C)(C)CO2)n1 [Compound I-111] .
5.52 to 6.00

----------
molecular target: human GPR84 receptor (Homo sapiens); test: Gαi biosensor BRET assay in HEK293 cells transfected with GPR84, stimulated with the GPR84 agonist ZQ-16; conditions: 200 nmol/L ZQ-16
Let's look at some compounds and their measured IC50.

Use these answered entries as a reference point.
- compound: "CN(C)c1cc(N2CC3(COC3)C2)c(F)cc1-c1cn(CC2OCC3(CC3)CO2)nn1"
  IC50: "≤ 300 nM"
- compound: "CC(C)(O)C#Cc1cnc(-c2cn(CC3OCC(C)(C)CO3)nn2)c(OC2CC2)c1"
  IC50: "300 to 1000 nM"
- compound: "CN(C)c1cc(N2CC(C)(CO)C2)c(F)cc1-c1cn(CC2OCC3(CC3)CO2)cn1"
  IC50: "≤ 300 nM"
- compound: "CC(O)C1(C)CN(c2ccc(-c3cn(CC4OCC5(CC5)CO4)nn3)c(N(C)C)c2)C1 (stereo not shown)"
  IC50: "≤ 300 nM"

Give a short answer stating reported IC50 for "[2H]C([2H])([2H])N(c1cc(N2CC(C)(CO)C2)ccc1-c1cn(CC2OCC3(CC3)CO2)nn1)C([2H])([2H])[2H]" .
300 to 1000 nM

Given "O=C(Cn1cc(-c2ncc(C#CC3CC3)cc2OC2CC2)nn1)N1CC[C@@H](O)C1" , respond with its IC50.
1000 to 3000 nM

// fetch IC50 given entry "CC1(C)COC(Cn2cc(-c3ncc(C#CCNC4COC4)cc3OC3CC3)nn2)OC1"
≤ 300 nM

Fill in IC50 for record "CN(C)C(=O)Cn1cc(-c2ncc(C#CC3CC3)cc2OC2CC2)nn1"
1000 to 3000 nM

Determine from records and report IC50 for "CC1(C)COC(Cn2cc(Cc3cc(C#CC4CC4)ccc3Cl)nn2)OC1"
1000 to 3000 nM

Complete the entry with IC50 for "Cn1ncc(-c2cnc(-c3cn(CC4OCC5(CC5)CO4)nn3)c(OC3CC3)c2)n1"
≤ 300 nM

Note down IC50 recorded for "[2H]C([2H])([2H])N(c1cc(N2CC(C)(CO)C2)ccc1-c1cn(CC2OCC(C)(C)CO2)nn1)C([2H])([2H])[2H]"
300 to 1000 nM

Given the compound "C(#Cc1ccc(-c2cn(CC3OCC4(CC4)CO3)nn2)c(C2CC2)c1)COC1CC1" , write its reported IC50.
300 to 1000 nM

Identify IC50 associated with the compound "CC1(C)COC(Cn2cc(-c3ncc(C#CC4(O)CC4)cc3OC3CC3)nn2)OC1"
≤ 300 nM

State its IC50: "CN(C)C(=O)Cn1cc(-c2ccc(N3CC(C)(CO)C3)cc2N(C)C)nn1"
1000 to 3000 nM

Supply reported IC50 belonging to this compound: "CN(C)c1cc(N2CC3(COC3)C2)ccc1-c1cn(CC2OCC(C)(C)CO2)cn1"
1000 to 3000 nM

Give IC50 for the following compound: "CN(C)c1cc(N2CC(C)(CO)C2)ccc1-c1cn(CC2OCC3(CC3)CO2)cn1"
≤ 300 nM
